Examples of compounds with documented response follow.
# PROTOCOL TEXT: cytosolic pH regulators acting via V-ATPase – S. cerevisiae, pHLuorin, HTS validation (AID 504600);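 note: plate controls were DMSO for no effect and reference compound for full effect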
# EXPERIMENTAL PARAMETERS: V-ATPase proton transport, at 10 µM, hits give high values
Activity calls are given as the source filed them. Cut-off read from the data, not from the text of the source: active = response above about 15%; inactive = the rest.
OUTCOME MEASURE: response

[[record]]
compound = "CC(C)=CCC/C(C)=C/CC/C(C)=C/CC/C(C)=C/CC1=C(C)C(=O)c2ccccc2C1=O"
reported_result = "-1.04% (inactive)"

[[record]]
compound = "NC(CO)C(=O)NNCc1ccc(O)c(O)c1O (stereo unspecified)"
reported_result = "-0.21% (inactive)"

[[record]]
compound = "COc1cc2c(cc1OC)C(c1ccc(-c3cc(Cl)ccc3Cl)o1)=NCC2"
reported_result = "2.96% (inactive)"

[[record]]
compound = "COCCCN1C(=O)C(=O)/C(=C(/O)c2ccc3c(c2)CC(C)O3)C1c1cccnc1 (stereo unspecified)"
reported_result = "-1.78% (inactive)"

[[record]]
compound = "N/C(Cc1ccc(Cl)cc1Cl)=N\\OC(=O)c1ccc(Br)o1"
reported_result = "3.34% (inactive)"

[[record]]
compound = "COc1ccc(-c2[nH]ncc2CN(C)C(C)c2ccon2)c(OC)c1 (stereo unspecified)"
reported_result = "-3.5% (inactive)"

[[record]]
compound = "CCn1cc(CN2N=C(C)CC2c2ccccc2)c(C)n1 (stereo unspecified)"
reported_result = "1.03% (inactive)"

[[record]]
compound = "Fc1ccccc1CNCCC(Cc1ccccc1)c1ccc2c(c1)OCO2 (stereo unspecified)"
reported_result = "1.06% (inactive)"

[[record]]
compound = "CC(C)CCC1(CCNC(C)c2cccs2)CCOC(C)(C)C1 (stereo unspecified)"
reported_result = "-1.06% (inactive)"

[[record]]
compound = "O=C(O)COc1ccc2occ(C(=O)c3ccccc3)c2c1"
reported_result = "0.64% (inactive)"

[[record]]
compound = "COCCN(CCOC)Cc1c(C)[nH]c2c(C)c(C)ccc2c1=O"
reported_result = "5.64% (inactive)"


====

# PROTOCOL TEXT: AML differentiation inducers, ER-HoxA9 marrow cells – cell-based, GFP/MAC1 double positive, flow cytometry, validation set, primary screen (AID 588685);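 note: compound exposure lasts four days before antibody staining and flow analysis; 0% = DMSO wells and 100% = 5 µM fulvestrant positive control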
# EXPERIMENTAL PARAMETERS: hits give high values, normalized: vehicle 0, fulvestrant 100
OUTCOME MEASURE: differentiation response (%)

[[record]]
molecule = "COc1ccc2[nH]c3c(=O)n(/N=C/[C@H]4C(C)C=C(C)CC4C)c(=O)[nH]c3c2c1 (some centres not stated)"
outcome_measure = "differentiation response"
unit_label = "%"
reported_result = -28

[[record]]
molecule = "O=C(NCCc1c[nH]c2ccccc12)OCCSS(=O)(=O)O"
outcome_measure = "differentiation response"
unit_label = "%"
reported_result = 2.2

[[record]]
molecule = "COc1ccc(NC(=O)C2CCCN2C(=O)OC(C)(C)C)cc1 (configuration not stated)"
outcome_measure = "differentiation response"
unit_label = "%"
reported_result = -5.68

[[record]]
molecule = "CCOC(=O)c1c(C)oc2c1C(=O)c1ccccc1C2=O"
outcome_measure = "differentiation response"
unit_label = "%"
reported_result = -0.36

[[record]]
molecule = "CC(NC(=O)c1cccnc1)C(=O)O (configuration not stated)"
outcome_measure = "differentiation response"
unit_label = "%"
reported_result = -7.2

[[record]]
molecule = "O=c1c(-c2ccccc2)c(O)c2cccc3c2n1CCC3"
outcome_measure = "differentiation response"
unit_label = "%"
reported_result = -12.9

[[record]]
molecule = "Cn1c(=O)c2[nH]cnc2n(C)c1=O"
outcome_measure = "differentiation response"
unit_label = "%"
reported_result = -2.46

[[record]]
molecule = "COc1ccc(CCNC(=O)c2ccc(Cl)cc2)cc1OC"
outcome_measure = "differentiation response"
unit_label = "%"
reported_result = -17.7

[[record]]
molecule = "CC(=O)Nc1ccccc1C(=O)C(=O)Nc1ccccc1"
outcome_measure = "differentiation response"
unit_label = "%"
reported_result = 29.6

[[record]]
molecule = "CC(C)C(CCN1C(=O)CCC1=O)C1CCOC(C)(C)C1 (configuration not stated)"
outcome_measure = "differentiation response"
unit_label = "%"
reported_result = 4.97

[[record]]
molecule = "CCOC(=O)C(NC(=O)CCC(=O)Nc1ccc(S(N)(=O)=O)cc1)C(O)c1ccccc1 (configuration not stated)"
outcome_measure = "differentiation response"
unit_label = "%"
reported_result = -7.94

[[record]]
molecule = "CCc1cc(/C(Cc2ccccn2)=N\\O)c(O)cc1O"
outcome_measure = "differentiation response"
unit_label = "%"
reported_result = -5.6

